Molecular target: 5-HT1 receptor
Assay: Affinity for the 5-HT1 receptor, receptor binding studies with 3H-serotonin on calf hippocampus membrane preparations
Excerpt: Affinity for the 5-HT1 receptor In Table 1, the high affinity of the compounds according to the invention for 5-hydroxytryptamine receptors of the subtype 1 is represented by way of example. The values given are data which have been determined from receptor binding studies using calf hippocampus membrane preparations. The radioactively labelled ligand used for this was ^3 H-serotonin.
pKi: −log10 of the molar value.
Below is a list of entries, each paired with its recorded pKi value.
parameter: pKi

* O=C1NCN(c2ccccc2)C12CCN(CC1CCc3ccccc3O1)CC2 (stereo not drawn) | 8.70
* O=C1NCN(c2ccccc2)C12CCN(C[C@H]1CCc3ccccc3O1)CC2 | 9.00
* COc1cccc2c1OC(CN1CCC3(CC1)C(=O)NCN3c1ccccc1)CC2 (stereo not drawn) | 8.82
